test system: Plasmodium falciparum; assay: Confirmatory screen in NF54 nanoGlo assay, in single point, at 2uM, 72h; assay type: functional, Erythrocyte; settings: timepoint 72 hour
Screen size: about 4,800 compounds; about 420 (8.8%) showed an effect of 50% or more. The full list was thinned out, with strong results kept by preference.

| molecule | studyTarget | unit | % Inhibition |
| --- | --- | --- | --- |
| CN1CC[C@]2(CCN(c3ccnc4ccsc34)C2)C1 | Plasmodium falciparum | % | 99 |
| Cc1cc(=O)c(OCC(=O)N2CCN([C@@H](c3ccccc3)c3ccc(Cl)cc3)CC2)c[nH]1 | Plasmodium falciparum | % | 63 |
| Cn1cc(/C=C2\CC3C4CCC5CCCCC5(C)C4CCC3(C)C2O)cn1 (centres undefined) | Plasmodium falciparum | % | 0 |
| CN(C)S(=O)(=O)Nc1cccc(OC(=O)N2CCOCC2)c1 | Plasmodium falciparum | % | -10 |
| CNc1snc(C)c1C(=O)N1CCC(C(=O)OC)(c2ccccc2)CC1 | Plasmodium falciparum | % | -2 |
| CC[C@H]1C[N@@]2CC[C@H]1C[C@@H]2COC(=O)Nc1ccc(C(C)(C)C)cc1 | Plasmodium falciparum | % | 4 |
| CN(C)C(=O)CCCn1ccc(NC(=O)C2C(C)(C)C2(C)C)n1 | Plasmodium falciparum | % | -18 |
| Cc1cc(C(F)(F)F)c2c(C(N)=O)cn(C(C)(C)C)c2n1 | Plasmodium falciparum | % | 2 |
| CC(C)c1nc(CC(=O)N2CCN(Cc3nnc4n3CCCCC4)CC2)cs1 | Plasmodium falciparum | % | -12 |
| CC1CCCCC1N1CCN(C(=O)COc2ccc(Br)cc2)CC1 (centres undefined) | Plasmodium falciparum | % | 3 |
| COc1cc(OCC(=O)N2CCN([C@@H](C)Cc3ccccc3)CC2)cc(OC)c1OC | Plasmodium falciparum | % | 8 |
| Clc1ccc(C2CC(c3cccnc3)Nc3nnnn32)cc1 (centres undefined) | Plasmodium falciparum | % | -10 |
| CC[C@H]1C[N@@]2CC[C@H]1C[C@@H]2COC(=O)Nc1ccccc1 | Plasmodium falciparum | % | 3 |
| CCN(CC)CCC1C(=O)N(c2ccccc2)C(=O)N(c2ccccc2)C1=O | Plasmodium falciparum | % | 4 |
| CN1CCN(CCO[C@@H](c2cccc(Cl)c2)c2ccccc2Cl)CC1 | Plasmodium falciparum | % | 0 |
| Cc1ccc(NC(=O)N2CCC(=O)CC2)cc1Br | Plasmodium falciparum | % | -4 |
| CN1CCC2CCN(C(=O)c3cc(C4CC4)on3)C2C1 (centres undefined) | Plasmodium falciparum | % | 2 |
| CCCS(=O)(=O)NC[C@H]1C[C@@H]2CCN1C[C@@H]2c1cc(C(CC)CC)nc(-c2ccncc2)n1 | Plasmodium falciparum | % | 18 |
| Cn1nc(OC(=O)Nc2ccccc2)cc1C(F)(F)F | Plasmodium falciparum | % | 6 |
| Clc1cccc(CCN[C@H]2CCOC3(CCOCC3)C2)c1 | Plasmodium falciparum | % | 7 |
| c1cc(N2CC[C@@]3(CCCNC3)C2)c2sccc2n1 | Plasmodium falciparum | % | 99 |
| Nc1ccc(N2CCN3CCC[C@H]3C2)cc1 | Plasmodium falciparum | % | 8 |
| COc1cc(=O)c(C(=O)N2CCC3(CC2)OCCO3)nn1-c1ccc(C)cc1 | Plasmodium falciparum | % | -5 |
| Cc1ccc2c(c1)CCCN2C(=O)CN1CC=C(c2cnn(C)c2)CC1 | Plasmodium falciparum | % | 43 |
| CC(=O)N(C1CCN(Cc2ccccc2)CC1)C1(C(=O)Nc2ccc3[nH]ccc3c2)CCN(C)CC1 | Plasmodium falciparum | % | 35 |
| CC(Cc1ccccc1)NC1CN2CCC1CC2 (centres undefined) | Plasmodium falciparum | % | 1 |
| CCC(CC)c1cc([C@H]2CN3CC[C@H]2C[C@@H]3CNS(=O)(=O)Cc2ccccc2)nc(-c2ccncc2)n1 | Plasmodium falciparum | % | 63 |
| C=CCCC(CN1C[C@H]2CC=CC[C@H]2C1)Oc1ncc(F)cn1 (some centres undefined) | Plasmodium falciparum | % | 77 |
| FC1(F)C[C@@H](COc2cccnc2)N(C2CCCCC2)C1 | Plasmodium falciparum | % | 3 |
| CCCCC1(CCCC)C(=O)NC(=Nc2ccc(C)cc2)NC1=O | Plasmodium falciparum | % | -18 |
| c1cc(-n2cnnn2)ccc1N[C@H]1CN2CCC1CC2 | Plasmodium falciparum | % | -14 |
| Cc1nc(Cn2nc(C(C)(C)C)oc2=O)oc1C | Plasmodium falciparum | % | 0 |
| CC1CN2CCCC2CN1C(=O)c1cc(C2CC2)on1 (centres undefined) | Plasmodium falciparum | % | -17 |
| CC(C)N1CCN(c2nc3nc[nH]c(=O)c3s2)CC1 | Plasmodium falciparum | % | 4 |
| O=C1N(c2ccccc2)C(=O)C2(Cc3cc(C(F)(F)F)ccc3N3CCC(c4ccccc4)CC32)C(=O)N1c1ccccc1 (centres undefined) | Plasmodium falciparum | % | 4 |
| C[N+]12CCC(CC1)[C@@H](C(O)(c1cccc(Cl)c1)c1cccc(Cl)c1)C2 | Plasmodium falciparum | % | 24 |
| CCC1(CC)C(=O)N(CN2CCCC2=O)C(=O)N(CN2CCCC2=O)C1=O | Plasmodium falciparum | % | -17 |
| COc1snc(C(Cl)(Cl)Cl)c1Cl | Plasmodium falciparum | % | -2 |
| COc1ccc(-c2cc([C@H]3CN4CC[C@H]3C[C@@H]4CNC(=O)C3CCCCC3)n(C)n2)cc1OC | Plasmodium falciparum | % | -9 |
